test summary: Tmax in mouse at 25 mg/kg, iv and measured upto 24 hrs
Format: ADME, organism-based
conditions: in vivo
measured parameter: Tmax (min)

> print(dat)
                              record.smiles  result.units  number
1  CN1CCN(C(=O)c2ccc(-c3nn4c(-c5ccc(C#N)cc5)cnc4s3)cc2)CC1           min     4.8

###

test summary: AUC (0-t) in mouse at 25 mg/kg, iv and measured upto 24 hrs
Type: ADME, organism-based
Parameters: time < 24 hrs, dose 25 mg/kg, route iv
conditions: in vivo
measured parameter: AUC(0-t) at 24 h (ng·h/mL)

> print(dat)
                              record.smiles  number
1  CN1CCN(C(=O)c2ccc(-c3nn4c(-c5ccc(C#N)cc5)cnc4s3)cc2)CC1   80900
